- assay.summary: Caco-2 bidirectional permeability
- Assay type: in vitro ADME
- recorded.conditions: human, tested at 10 μM
value.type: Papp B→A at 10 μM (×10⁻⁶ cm/s)

given.smiles: CC(C)OC(=O)C(C)(C)N[P@](=O)(OC[C@H]1O[C@@](C#N)(c2ccc3c(N)ncnn23)[C@](C)(O)[C@@H]1O)Oc1ccccc1
value.units: ×10⁻⁶ cm/s
value.observed: 9.3

----------
- assay.summary: Thermodynamic solubility (shaking flask, simulated intestinal fluid)
- Type: physicochemical
- recorded.conditions: fed-state simulated intestinal fluid, fessif, thermodynamic from solid; crystalline free base GS-6620, amorphous GS2
Quick list: solubility thermodynamic per entry.

compound: CC(C)OC(=O)C(C)(C)N[P@](=O)(OC[C@H]1O[C@@](C#N)(c2ccc3c(N)ncnn23)[C@](C)(O)[C@@H]1O)Oc1ccccc1
solubility thermodynamic, µM: 430
//
compound: CC(C)OC(=O)[C@H](C)N[P@](=O)(OC[C@H]1O[C@@](C#N)(c2ccc3c(N)ncnn23)[C@](C)(O)[C@@H]1OC(=O)C(C)C)Oc1ccccc1 [GS-6620, reference compound]
solubility thermodynamic, µM: 7.8

----------
- assay.summary: Caco-2 bidirectional permeability
- Assay type: in vitro ADME
- recorded.conditions: human, at thermodynamic solubility limit in fed simulated intestinal fluid
Quick list: Papp A→B per entry.
value.type: Papp A→B

molecule: CC(C)OC(=O)C(C)(C)N[P@](=O)(OC[C@H]1O[C@@](C#N)(c2ccc3c(N)ncnn23)[C@](C)(O)[C@@H]1O)Oc1ccccc1
value.observed: 2.6 ×10⁻⁶ cm/s
--
molecule: CC(C)OC(=O)[C@H](C)N[P@](=O)(OC[C@H]1O[C@@](C#N)(c2ccc3c(N)ncnn23)[C@](C)(O)[C@@H]1OC(=O)C(C)C)Oc1ccccc1 [GS-6620, reference compound]
value.observed: 1.8 ×10⁻⁶ cm/s

----------
Quick list: half-life at 2 μM per entry.
- assay.summary: in vitro
- Type: in vitro ADME
- recorded.conditions: rat plasma, 37°C, read-out: Plasma stability, half-life
value.type: half-life at 2 μM

compound: CC(C)OC(=O)C(C)(C)N[P@](=O)(OC[C@H]1O[C@@](C#N)(c2ccc3c(N)ncnn23)[C@](C)(O)[C@@H]1O)Oc1ccccc1 [GS2]
value.type: half-life at 2 μM
value.observed: 5 min
//
compound: CC(C)OC(=O)[C@H](C)N[P@](=O)(OC[C@H]1O[C@@](C#N)(c2ccc3c(N)ncnn23)[C@](C)(O)[C@@H]1OC(=O)C(C)C)Oc1ccccc1 [GS-6620, reference compound]
value.type: half-life at 2 μM
value.observed: < 2 min

----------
- assay.summary: Caco-2 bidirectional permeability
- Type: in vitro ADME
- recorded.conditions: human, at thermodynamic solubility limit in fed simulated intestinal fluid, read-out: Efflux ratio B→A/A→B

compound: CC(C)OC(=O)[C@H](C)N[P@](=O)(OC[C@H]1O[C@@](C#N)(c2ccc3c(N)ncnn23)[C@](C)(O)[C@@H]1OC(=O)C(C)C)Oc1ccccc1 [GS-6620, reference compound]
efflux ratio: 5.8
//
compound: CC(C)OC(=O)C(C)(C)N[P@](=O)(OC[C@H]1O[C@@](C#N)(c2ccc3c(N)ncnn23)[C@](C)(O)[C@@H]1O)Oc1ccccc1 [GS2]
efflux ratio: 2.5

----------
- assay.summary: Plasma pharmacokinetics in pentagastrin-pretreated portal vein-cannulated dogs
- Format: in vivo, male beagle dogs
- recorded.conditions: male, beagle, dog, plasma (portal vein); oral 5 mg/kg; GS2 in solution, GS-6620 in suspension of micronized material; read-out: AUC0–t portal
Quick list: AUC(0-t) per entry.

compound: CC(C)OC(=O)[C@H](C)N[P@](=O)(OC[C@H]1O[C@@](C#N)(c2ccc3c(N)ncnn23)[C@](C)(O)[C@@H]1OC(=O)C(C)C)Oc1ccccc1 [GS-6620, reference compound]
AUC(0-t) (µM·h): 1.68

compound: CC(C)OC(=O)C(C)(C)N[P@](=O)(OC[C@H]1O[C@@](C#N)(c2ccc3c(N)ncnn23)[C@](C)(O)[C@@H]1O)Oc1ccccc1
AUC(0-t) (µM·h): 1.77

// data source = paper PMC6105845
